# method-notes: Protective effect of compound on SNP-induced cell death in SH-SY5Y cells (concentration = 10 uM)
# Assay type: functional
Attribute: Inhibition
Please state the number and follow it with the unit.

compound	experimental-result
O=C1C=C(c2ccc(O)cc2)OC2C=C(O)C(Oc3ccc(-c4cc(=O)c5c(O)cc(O)cc5o4)cc3)=C(O)C12 (stereo unspecified)	15%

What Inhibition value was documented for this compound, `COc1ccc(-c2cc(=O)c3c(O)cc(O)cc3o2)cc1Oc1ccc(-c2cc(=O)c3c(O)cc(O)cc3o2)cc1` ?
1.6%

====

# method-notes: Protective effect of compound on SNP-induced cell death in SH-SY5Y cells (concentration = 10 uM)
# Type: functional
Attribute: Inhibition
Dear colleague, please return just the value in %, with no unit written.

Use these answered entries as a reference point.
compound	unit-info	Inhibition
COc1cc(O)c2c(=O)cc(-c3ccc(OC)c(C4=C(O)C=C(O)C5C(=O)C=C(c6ccc(O)cc6)OC45)c3)oc2c1 (centres undefined)	%	32.4
COc1ccc(C2=CC(=O)C3C(O)=CC(O)=C(c4cc(-c5cc(=O)c6c(O)cc(O)cc6o5)ccc4OC)C3O2)cc1 (centres undefined)	%	23.5
COc1ccc(C2=CC(=O)C3C(O)=CC(O)=C(c4cc(-c5cc(=O)c6c(O)cc(OC)cc6o5)ccc4OC)C3O2)cc1 (centres undefined)	%	4.6

What Inhibition value was documented for this compound, COC1=CC2OC(c3ccc(O)cc3)=CC(=O)C2C(O)=C1Oc1ccc(-c2cc(=O)c3c(O)cc(O)cc3o2)cc1 (centres undefined) ?
-25
